- Tested on: HAB1
- assay protocol: Yeast two hybrid of pBD-PYR1 site saturation mutants with pACT-HAB1 on 10 μM ABA, β-galactosidase staining
- Format: cell-based, Arabidopsis
- Design: key: x: Mutations in PYR1 that disrupt ABA-induced binding to PYR1 to HAB1
- settings: S. cerevisiae Y190, 10 μM ABA; dead = lack of visible staining in comparison to wild type control
- Excerpt: To systematically identify mutations in PYR1 that disrupt its binding to HAB1, we utilized a collection of saturating mutations that contain all possible single amino acid substitutions in 24 conserved interface residues involved in binding HAB1, which was previously constructed for the purpose of engineering constitutively active ABA receptor variants (Mosquna et al., 2011). […]
endpoint label: Mutations in PYR1 that disrupt ABA-induced binding to PYR1 to HAB1

F159S: PYR1 mutant (protein, UniProt O49686 1-191, looked up, variant F159S) Abscisic acid receptor PYR1: MPSELTPEERSELKNSIAEFHTYQLDPGSCSSLHAQRIHAPPELVWSIVRRFDKPQTYKHFIKSCSVEQNFEMRVGCTRDVIVISGLPANTSTERLDILDDERRVTGFSIIGGEHRLTNYKSVTTVHRFEKENRIWTVVLESYVVDMPEGNSEDDTRMSADTVVKLNLQKLATVAEAMARNSGDGSGSQVT | x
S85F: PYR1 mutant (protein, UniProt O49686 1-191, looked up, variant S85F) Abscisic acid receptor PYR1: MPSELTPEERSELKNSIAEFHTYQLDPGSCSSLHAQRIHAPPELVWSIVRRFDKPQTYKHFIKSCSVEQNFEMRVGCTRDVIVIFGLPANTSTERLDILDDERRVTGFSIIGGEHRLTNYKSVTTVHRFEKENRIWTVVLESYVVDMPEGNSEDDTRMFADTVVKLNLQKLATVAEAMARNSGDGSGSQVT | x

Data provenance is patent US10919943B2.
